// data source = patent US9827236B2

system: nutrient protein (lysine); test: Effect of temperature on protein glycation, in vitro, spectrophotometer; conditions: 60 deg C.
measurementLabel: Absorbance at different temperatures

>>> print(df.to_string())
                                   compound  result
0  O=C(CO)[C@@H](O)[C@H](O)[C@H](O)CO [Fructose]     0.1
1    O=C[C@H](O)[C@H](O)[C@H](O)CO [Ribose]    0.13
2  OC[C@H]1O[C@H](O[C@H]2[C@H](O)[C@@H](O)[C@H](O)O[C@@H]2CO)[C@H](O)[C@@H](O)[C@@H]1O [Maltose]    0.04
3  OC[C@H]1O[C@@H](O[C@H]2[C@H](O)[C@@H](O)C(O)O[C@@H]2CO)[C@H](O)[C@@H](O)[C@H]1O (stereo partly shown) [Lactose]    0.06
